Molecular target: Carbonic anhydrase 2 (Homo sapiens) (UniProt P00918)
Experiment: compounds binding carbonic anhydrase 2 – biochemical, small-molecule microarray, Alexa647-labelled CAII, profiling panel (AID 1122)
Conditions: CAII-A647 binding fluorescence, higher = more signal
Experimental readout: composite z-score
Could you respond with only the numeric value?

Q) Provide composite z-score, tested on Carbonic anhydrase 2 (Homo sapiens) (UniProt P00918), for C=CCN1C(=O)[C@@]2(O[C@@H](CCO)[C@H]([Si](C)(C)c3ccc(OC)cc3)[C@H]2C)c2cc(NC(C)=O)ccc21 .
A) 0.366

Q) Provide composite z-score, tested on Carbonic anhydrase 2 (Homo sapiens) (UniProt P00918), for CN(C)CCCC[C@@H]1NC(=O)[C@H]2C[C@@H](C(=O)NCCCCCNC(=O)CS)[C@@H](c3ccc(O)cc3)N2C1=O .
A) -0.204

Q) Provide composite z-score, tested on Carbonic anhydrase 2 (Homo sapiens) (UniProt P00918), for O=C1C2C=CC(C(O)CCc3ccccc3)N(Nc3ccccc3)C2C(=O)N1c1ccccc1 (configuration not stated) .
A) 0.65

Q) Provide composite z-score, tested on Carbonic anhydrase 2 (Homo sapiens) (UniProt P00918), for C=C[C@@H](C)[C@@H](OC(=O)Nc1ccc(OC)cc1)c1ccc(O)c2ccccc12 .
A) 0.283

Q) Provide composite z-score, tested on Carbonic anhydrase 2 (Homo sapiens) (UniProt P00918), for O=C(N1CCCCC1)[C@]1(CCS(=O)(=O)c2ccccc2)N=C(c2ccc(OCCCO)cc2)O[C@@H]1c1ccccc1 .
A) 0.639

Q) Provide composite z-score, tested on Carbonic anhydrase 2 (Homo sapiens) (UniProt P00918), for Cc1ccc(S[C@]2(C(=O)NCc3ccccc3)CC(=O)N(Cc3cc(C(F)(F)F)cc(C(F)(F)F)c3)[C@@H]2c2ccc(CO)cc2)cc1 .
A) 0.433

Q) Provide composite z-score, tested on Carbonic anhydrase 2 (Homo sapiens) (UniProt P00918), for C[N+](C)(C)CCCC[C@@H]1NC(=O)[C@H]2C[C@@H](C(=O)O)[C@@H](c3cccc(OCCO)c3)N2C1=O .
A) 0.758

---

Test: growth modulation of vineyard yeast isolate – strain RM11-1a, OD600, basal, 24 h, primary screen (AID 1177);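 note: cultures grown under basal conditions with no added stressor; test concentration not given here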
Conditions: S. cerevisiae RM11-1a growth, OD600, 24 h; higher = more signal, called active from +8 up or from −8 down
Experimental readout: z-score
Could you respond with only the numeric value?

Q) Determine its reported z-score: COCCOC(=O)N1C(=O)[C@@]2(c3cc(C#Cc4ccc(OC)cc4)ccc31)[C@H](c1ccc(OCCO)cc1)N1[C@H](c3ccccc3)[C@H](c3ccccc3)OC(=O)[C@H]1[C@@H]2C(=O)N1CCc2cc(OC)c(OC)cc2C1
A) 3.55

Q) Determine its reported z-score: NC(=O)NCC#Cc1ccc2c(c1)[C@]1(C(=O)N2)[C@H](C(=O)NC[C@H](O)c2ccccc2)[C@H]2C(=O)O[C@H](c3ccccc3)[C@H](c3ccccc3)N2[C@@H]1c1ccccc1OCCO
A) 0.915

Q) Determine its reported z-score: C=CCC(OC(C)=O)[C@@H]1[C@@H](N(Cc2cc3ccccc3o2)C(=O)c2ccc(-c3ccccc3)cc2)c2cc(OCCCO)ccc2N1C(=O)Cc1ccc2ccccc2c1 (stereo partly specified)
A) 0.854

Q) Determine its reported z-score: COc1ccc([Si](C)(C)[C@H]2[C@H](CCO)O[C@@]3(C(=O)N(Cc4cccc(N5C(=O)c6cccc7cccc5c67)c4)c4ccccc43)[C@@H]2C)cc1
A) 4.72

Q) Determine its reported z-score: COCCOC(=O)N1C(=O)[C@@]2(c3ccccc31)[C@H](c1ccc(O)cc1)N1[C@H](c3ccccc3)[C@H](c3ccccc3)OC(=O)[C@H]1[C@@H]2C(N)=O
A) 0.623

Q) Determine its reported z-score: CCOC(=O)N1C(c2ccc(OCCCO)cc2)=NC(C(=O)OC)N1C(=O)OCC (stereo unspecified)
A) -1.08

---

For each of the compounds below, state its z-score.
Test: JC-1 mitochondrial potential readout, lung cancer cells – cell-based, A549, JC-1 fluorescence, basal, 24 h, 100 nL, profiling panel (AID 1138);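 note: A549 lung adenocarcinoma cells under basal conditions with no added stimulus; test concentration not given here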
Details: higher = more signal
Could you respond with only the numeric value?

Q) Determine its reported z-score: C[n+]1ccc2ccc(O)cc2c1
A) -0.924

Q) Determine its reported z-score: CCCNC(=O)[C@@]1(C)c2ccccc2C(=O)N(Cc2cc(C(F)(F)F)cc(C(F)(F)F)c2)[C@H]1c1ccc(CO)cc1
A) -0.704

Q) Determine its reported z-score: CC(C)(C)OC(=O)CC[C@@]1(C(=O)N2CCOCC2)N=C(c2ccc(OCCCO)cc2)O[C@@H]1c1ccccc1N=[N+]=[N-]
A) 1.9

Q) Determine its reported z-score: O=C(NCC(O)CO)[C@@]1(Cc2ccccc2)N=C(c2ccc(OCCCO)cc2)O[C@H]1c1ccccc1 (some centres undefined)
A) 1.44

---

Assay: resazurin metabolic signal in A549 cells – cell-based, resazurin fluorescence, 24 h, PK04 Diversity Set, profiling panel (AID 1171); note: test concentration not given here
Settings: A549 viability, higher = more signal, called active from +8 up or from −8 down
Experimental readout: z-score
Could you respond with only the numeric value?

Q) Determine its reported z-score: [N-]=[N+]=NCc1ccccc1[C@H]1OC(c2ccc(OCCCO)cc2)=N[C@@]1(Cc1ccccc1)C(=O)NCC(O)CO (some centres not stated)
A) 0.951

Q) Determine its reported z-score: CN(C)CCCC[C@@H]1NC(=O)[C@@H]2C[C@H](C(=O)NCc3ccc(F)cc3)[C@H](c3cccc(OCCO)c3)N2C1=O
A) -0.158

Q) Determine its reported z-score: C=CCNC(=O)[C@H]1[C@@H]2C(=O)O[C@@H](c3ccccc3)[C@@H](c3ccccc3)N2[C@@H](c2ccc(OCCO)cc2)[C@]12C(=O)N(C(=O)OCCOC)c1ccc(C#CC3(O)CCCCCC3)cc12
A) 0.454

Q) Determine its reported z-score: C=CC[C@]1(C(=O)O)N=C(c2ccc(OCCCO)cc2)O[C@H]1c1ccccc1CN=[N+]=[N-]
A) -0.506

Q) Determine its reported z-score: COc1ccc([Si](C)(C)[C@@H]2[C@@H](CCn3cc([C@H](O)c4ccccc4)nn3)O[C@]3(C(=O)N(C)c4ccccc43)[C@H]2C)cc1
A) -1.89

Q) Determine its reported z-score: O=C1O[C@@H](c2ccccc2)[C@@H](c2ccccc2)N2[C@@H](c3ccc(O)cc3)[C@]3(C(=O)Nc4ccccc43)[C@@H](C(=O)NC[C@H](O)c3ccccc3)[C@H]12
A) 0.314

Q) Determine its reported z-score: CS(=O)(=O)CCOC(=O)C1=CC(c2ccc(CO)cc2)=CC(c2cccs2)N(Cc2cccc(OC(F)(F)F)c2)C=C1C(=O)OCCS(C)(=O)=O (configuration not stated)
A) -0.481

---

For each of the compounds below, state its composite z-score.
Target: Streptavidin (Streptomyces avidinii)
Assay: compounds binding control protein streptavidin – biophysical, small-molecule microarray, 635/667 nm fluorescence, artefact control for SMM compound annotation, primary screen (AID 1147);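 note: signal reflects streptavidin binding to arrayed compounds as a control protein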
Settings: higher = more signal
Could you respond with only the numeric value?

Q) Determine its reported composite z-score: C=CCOC(=O)[C@H]1[C@@H]2C(=O)O[C@@H](c3ccccc3)[C@@H](c3ccccc3)N2[C@@H](c2ccc(OCCOC(=O)[C@@H]3C[C@@H]4C(=O)NCC(=O)N4[C@@H]3c3ccc(O)cc3)cc2)[C@]12C(=O)Nc1ccc(I)cc12
A) 0.205

Q) Determine its reported composite z-score: CC(C)C(O)C1C=CC2C(=O)N(C)C(=O)C2N1N1CCCCC1 (stereo not given)
A) 0.482

Q) Determine its reported composite z-score: CN1C(=O)C2C=CC(C(O)C3=C[C@H]4C[C@@H](C3)C4(C)C)N(Nc3ccc([N+](=O)[O-])cc3[N+](=O)[O-])C2C1=O (stereo not given in full)
A) 1.56

Q) Determine its reported composite z-score: C=CCNC(=O)[C@@H]1[C@H]2C(=O)O[C@H](c3ccccc3)[C@H](c3ccccc3)N2[C@H](c2ccccc2OCCO)[C@@]12C(=O)N(C(=O)OCCOC)c1ccc(C#CCC(C(=O)OC)C(=O)OC)cc12
A) 1.63

Q) Determine its reported composite z-score: C=CCOC(=O)[C@@H]1[C@H]2C(=O)O[C@H](c3ccccc3)[C@H](c3ccccc3)N2[C@H](c2ccc(OCCOC(=O)[C@H]3C[C@H]4C(=O)N[C@@H](Cc5ccccc5)C(=O)N4[C@H]3c3ccc(O)cc3)cc2)[C@@]12C(=O)Nc1ccc(I)cc12
A) 0.593

---

Experiment: budding yeast growth changes without added modifier – OD600, strain BY4716, 24 h, basal condition, primary screen (AID 1173)
Settings: S. cerevisiae BY4716 growth, OD600, 24 h, called active from +8 up or from −8 down
Active and inactive are the calls of the source.
Respond with a class label; see T = active, F = inactive

Q) Dear colleague, could you share the recorded outcome for CCOC(=O)C[C@H]1[C@H](OC(=O)c2cc3ccccc3oc2=O)[C@@H](NC(=O)c2ccc3ccccc3c2)c2cc(OCCCO)ccc2N1C(=O)c1ccccc1 when you have a moment?
A) F

Q) Dear colleague, could you share the recorded outcome for CC(=O)N1Cc2ccccc2C[C@@]2(N=C(c3ccc(OCCCO)cc3)O[C@H]2c2ccccc2)C1=O when you have a moment?
A) F

Q) Dear colleague, could you share the recorded outcome for CCOC(=O)C[C@H]1[C@H](OC(=O)c2ccc(C(=O)c3ccccc3)cc2)[C@@H](NC(=O)c2ccc3ccccc3n2)c2cc(OCCCO)ccc2N1C(=O)c1ccc2ccccc2n1 when you have a moment?
A) F

Q) Dear colleague, could you share the recorded outcome for C=C[C@@H](C)[C@@H](OC(=O)Nc1ccc(OC)cc1)c1ccc(O)c2ccccc12 when you have a moment?
A) T

Q) Dear colleague, could you share the recorded outcome for O=C(NCCN1CCOCC1)[C@@H]1c2ccccc2C(=O)N(Cc2cc(F)cc(C(F)(F)F)c2)[C@H]1c1ccc(CO)cc1 when you have a moment?
A) F

Q) Dear colleague, could you share the recorded outcome for COc1ccc([Si](C)(C)[C@H]2[C@H](CCO)O[C@@]3(C(=O)N(Cc4ccccc4)c4ccc(N5C(=O)COc6ccccc65)cc43)[C@@H]2C)cc1 when you have a moment?
A) F

Q) Dear colleague, could you share the recorded outcome for CC(C)NC(=O)[C@@H]1c2ccccc2C(=O)N(C2CCCCC2)[C@H]1c1ccc(CO)cc1 when you have a moment?
A) F

Q) Dear colleague, could you share the recorded outcome for C[C@H]1C2[C@H](Cc3ccccc3)NC(=O)[C@]23C(=O)N[C@H](Cc2ccccc2)C(=O)N[C@H](Cc2ccccc2)C(=O)NC/C=C/CCC/C=C/C3[C@@H]2O[C@]12C (stereo partly drawn) when you have a moment?
A) F

Q) Dear colleague, could you share the recorded outcome for C=CCN1C(=O)[C@@]2(O[C@@H](CCO)[C@H]([Si](C)(C)c3ccc(OC)cc3)[C@H]2C)c2cc(N3C(=O)COc4ccccc43)ccc21 when you have a moment?
A) F

Q) Dear colleague, could you share the recorded outcome for C=C(CCCC)/C(=C/C[C@@H](OC(=O)c1ccncc1)c1ccc(CO)o1)c1cc(C(=O)OC)ccc1OC when you have a moment?
A) F

Q) Dear colleague, could you share the recorded outcome for Cc1cc(C)c(C(O)C2C=CC3C(=O)NC(=O)C3N2Nc2ccccn2)c(C)c1 (stereo not drawn) when you have a moment?
A) F

Q) Dear colleague, could you share the recorded outcome for [N-]=[N+]=NCc1ccccc1C[C@]1(C(=O)NCc2ccccc2)COC(c2ccc(OCCCO)cc2)=N1 when you have a moment?
A) F

Q) Dear colleague, could you share the recorded outcome for COC(=O)[C@@]1(Cc2ccc(F)cc2)[C@H]2c3cc(C(=O)N(C)C)n(Cc4ccccn4)c3C[C@H]2CN1C(=O)c1ccccc1 when you have a moment?
A) F

Q) Dear colleague, could you share the recorded outcome for O=C(CS)NCCCCCNC(=O)[C@H]1C[C@H]2C(=O)N[C@@H](Cc3ccccc3)C(=O)N2[C@H]1c1cccc(OCCO)c1 when you have a moment?
A) F

Q) Dear colleague, could you share the recorded outcome for Cc1ccc(S[C@]2(C(=O)NCc3ccccc3)CC(=O)N(Cc3cc(C(F)(F)F)cc(C(F)(F)F)c3)[C@@H]2c2ccc(CO)cc2)cc1 when you have a moment?
A) F

Q) Dear colleague, could you share the recorded outcome for C[N+](C)(C)CCCC[C@@H]1NC(=O)[C@H]2C[C@@H](C(=O)O)[C@@H](c3cccc(OCCO)c3)N2C1=O when you have a moment?
A) F

Q) Dear colleague, could you share the recorded outcome for CCOC(=O)C1=C[C@@H](C(C)(C)C)N(S(=O)(=O)c2ccc(C)cc2)[C@H]1c1ccc(Cl)c(Cl)c1 when you have a moment?
A) F

Q) Dear colleague, could you share the recorded outcome for CC(C)C(O)C1C=CC2C(=O)N(C)C(=O)C2N1N1CCCCC1 (stereo not drawn) when you have a moment?
A) F

Q) Dear colleague, could you share the recorded outcome for COC(=O)[C@@]1(Cc2ccc(OC)cc2)[C@H]2c3cc(C(=O)N(C)C)n(CCSCCO)c3C[C@H]2CN1C(=O)c1ccccc1 when you have a moment?
A) F

Q) Dear colleague, could you share the recorded outcome for O=C1OCCC=C[C@H]2OC34C=CCN(CCN5CCOCC5)C(=O)[C@H]3N(CCO)C(=O)[C@@H]4C12 (stereo partly drawn) when you have a moment?
A) F

Q) Dear colleague, could you share the recorded outcome for COC(=O)[C@@]1(Cc2ccc(F)cc2)[C@H]2c3cc(C(=O)N(C)C)n(CCc4c[nH]c5ccc(OC)cc45)c3C[C@H]2CN1C(=O)c1ccccc1 when you have a moment?
A) F

Q) Dear colleague, could you share the recorded outcome for C[n+]1ccc2ccc(O)cc2c1 when you have a moment?
A) F

Q) Dear colleague, could you share the recorded outcome for COc1ccc([Si](C)(C)[C@@H]2[C@@H](CCO)O[C@]3(C(=O)N(Cc4cccc(N5CCCCC5=O)c4)c4ccccc43)[C@H]2C)cc1 when you have a moment?
A) F

Q) Dear colleague, could you share the recorded outcome for C/C=C/[C@H](CCn1cc([C@H](O)c2ccccc2)nn1)[Si](C)(C)c1ccc(OC)cc1 when you have a moment?
A) F

Q) Dear colleague, could you share the recorded outcome for COc1ccc([Si](C)(C)[C@H]2[C@H](CC(=O)N(CCO)Cc3ccccc3)O[C@@]3(C(=O)N(Cc4cccc(N5C(=O)c6cccc7cccc5c67)c4)c4ccccc43)[C@@H]2C)cc1 when you have a moment?
A) F

Q) Dear colleague, could you share the recorded outcome for O=C1OCCC=C[C@H]2OC34C=CCN(c5ccc6ccccc6c5)C(=O)[C@H]3N(CCCCCCO)C(=O)[C@@H]4C12 (stereo partly drawn) when you have a moment?
A) F

Q) Dear colleague, could you share the recorded outcome for O=C1O[C@H](c2ccccc2)[C@H](c2ccccc2)N2[C@H]1[C@@H](C(=O)Nc1nc3ccccc3s1)[C@]1(C(=O)Nc3ccc(C#CC4=CCCCC4)cc31)[C@H]2c1ccc(OCCO)cc1 when you have a moment?
A) F

Q) Dear colleague, could you share the recorded outcome for C=CCOC(=O)[C@@H]1[C@H]2C(=O)O[C@H](c3ccccc3)[C@H](c3ccccc3)N2[C@H](c2ccc(OCCOC(=O)[C@H]3C[C@H]4C(=O)N[C@@H](Cc5ccccc5)C(=O)N4[C@H]3c3ccc(O)cc3)cc2)[C@@]12C(=O)Nc1ccc(I)cc12 when you have a moment?
A) F
